pIC50: −log10 of the molar value.
Listed below are compounds with pIC50 for Tyrosine-protein kinase JAK2 (Homo sapiens, UniProt O60674), each taken from published literature.

* N#CC=C1CC2CCC(C1)N2n1cnc2cnc3[nH]ccc3c21 | 8.72

Look at each compound and report its pIC50.
1. O=S(=O)(c1ccccc1OC(F)F)n1ccc2cnc(Nc3ccc(N4CCNCC4)cc3)nc21
2. CN(c1ncnc2[nH]ccc12)C1CC2(C1)CN(C(=O)c1cc3ccccc3s1)C2
3. O=C1NCCCCOCc2cc(ccc2N2CCOCC2)Nc2nccc(n2)-c2ccc1c(F)c2
4. COc1cccc(OC[C@H](O)CNc2cc[nH]c(=O)c2-c2nc3cc4c(cc3[nH]2)C(=O)N(C2CCN(C)CC2)C4)c1C
5. Nc1cc2ccc1-c1ccnc(n1)Nc1ccc(N3CCOCC3)c(c1)COCCCCNC2=O
6. C[C@H](O)CN1CCN(c2ccc(Nc3ncnc(-c4ccc(O[C@H]5CCN(C(=O)[C@H](C)O)C[C@H]5F)c(C#N)c4)n3)cc2)CC1
7. Cn1cc(-c2cc3nccn3c(-c3cnn(C4(CCO)CCC4)c3)n2)cn1

1. > 7.70
2. 5.00 to 6.00
3. > 8.00
4. > 6.30
5. 7.00 to 7.96
6. 6.01
7. < 6.00
